Catalogue of IC50 readings, one per entry.
tested on: Syk (Homo sapiens)
assay: Syk IC50 (Table 1; method not given)
Assay type: biochemical
recorded metric: IC50

- compound: "CC(=O)N(C)c1cccc(Nc2ncc(C(N)=O)c(NC(C)C)n2)c1"
  tested on: "Syk (Homo sapiens)"
  measured: "> 1000 nM"
- compound: "COC(=O)Nc1cccc(Nc2ncc(C(N)=O)c(NCC(F)(F)F)n2)c1"
  tested on: "Syk (Homo sapiens)"
  measured: "100 to 1000 nM"
- compound: "NC(=O)c1cnc(Nc2cccc(NC(=O)C3CC3)c2)nc1NC1CCCC1"
  tested on: "Syk (Homo sapiens)"
  measured: "100 to 1000 nM"
- compound: "NC(=O)Nc1cccc(Nc2ncc(C(N)=O)c(NCc3ccccc3)n2)c1"
  tested on: "Syk (Homo sapiens)"
  measured: "100 to 1000 nM"
- compound: "CC(=O)Nc1cccc(Nc2ncc(C(N)=O)c(NC[C@H](C)c3ccccc3)n2)c1"
  tested on: "Syk (Homo sapiens)"
  measured: "> 1000 nM"
- compound: "CC(C)OC(=O)Nc1cccc(Nc2ncc(C(N)=O)c(NCc3ccccc3)n2)c1"
  tested on: "Syk (Homo sapiens)"
  measured: "> 1000 nM"
- compound: "COCC(=O)N(C)c1cccc(Nc2ncc(C(N)=O)c(N[C@H](C)c3ccccc3)n2)c1"
  tested on: "Syk (Homo sapiens)"
  measured: "> 1000 nM"
- compound: "COCC(=O)Nc1cccc(Nc2ncc(C(N)=O)c(N[C@H](C)c3ccccc3)n2)c1"
  tested on: "Syk (Homo sapiens)"
  measured: "> 1000 nM"
- compound: "CC(=O)Nc1cccc(Nc2ncc(C(N)=O)c(N[C@H](CO)Cc3cnc[nH]3)n2)c1"
  tested on: "Syk (Homo sapiens)"
  measured: "> 1000 nM"
- compound: "CC(=O)Nc1cccc(Nc2ncc(C(N)=O)c(NC3CCCCC3)n2)c1"
  tested on: "Syk (Homo sapiens)"
  measured: "100 to 1000 nM"
- compound: "CC[C@H](C)[C@@H](CO)Nc1nc(Nc2cccc(NC(C)=O)c2)ncc1C(N)=O"
  tested on: "Syk (Homo sapiens)"
  measured: "> 1000 nM"
- compound: "CC(=O)Nc1cccc(Nc2ncc(C(N)=O)c(NCCN3CCCC3)n2)c1"
  tested on: "Syk (Homo sapiens)"
  measured: "> 1000 nM"
- compound: "CC(=O)N(C)c1cccc(Nc2ncc(C(N)=O)c(NC3CCCC3)n2)c1"
  tested on: "Syk (Homo sapiens)"
  measured: "> 1000 nM"
- compound: "COCC(=O)Nc1cccc(Nc2ncc(C(N)=O)c(N[C@@H](C)c3ccccc3)n2)c1"
  tested on: "Syk (Homo sapiens)"
  measured: "> 1000 nM"
- compound: "CCC(=O)Nc1cccc(Nc2ncc(C(N)=O)c(NC3CCCC3)n2)c1"
  tested on: "Syk (Homo sapiens)"
  measured: "100 to 1000 nM"
- compound: "COCC(=O)Nc1cccc(Nc2ncc(C(N)=O)c(NCc3ccccc3)n2)c1"
  tested on: "Syk (Homo sapiens)"
  measured: "> 1000 nM"
- compound: "CNc1nc(Nc2cccc(NC(C)=O)c2)ncc1C(N)=O"
  tested on: "Syk (Homo sapiens)"
  measured: "100 to 1000 nM"
- compound: "CC(=O)Nc1cccc(Nc2ncc(C(N)=O)c(NC3CC3c3ccccc3)n2)c1 (stereo not drawn)"
  tested on: "Syk (Homo sapiens)"
  measured: "100 to 1000 nM"

Origin of the recorded values: patent US8853230B2
